# System: Monocotyledonous and dicotyledonous weed
# test-details: Post-emergence test experiment, weed control effect (Table 2)
# Format: in vivo
# Parameters: key: Level 10: completely dead; Level 9: above 90% growth inhibition rate; Level 8: above 80% growth inhibition rate; Level 7: above 70% growth inhibition rate; Level 6: above 60% growth inhibition rate; Level 5: above 50% growth inhibition rate; Level 4: above 30% growth inhibition rate; Level 3: above 20% growth inhibition rate; Level 2: above 10% growth inhibition rate; Level 1: above 1-10% growth inhibition rate; Level 0: no effect
# protocol-conditions: 60 g/ha, 3 weeks after spraying, greenhouse
Field: weed control effect, Setaria viridis (level). Provide a value for each of the compounds that follow.
Output: the number by itself.

IN: Tell me measured weed control effect, Setaria viridis (level) for Cc1nn(C)cc1C(=O)Oc1c(C(=O)c2ccc(S(C)(=O)=O)c(Cn3cccn3)c2Cl)c(C)nn1C [Compound 01] please.
OUT: 10

IN: Please supply the value of reported weed control effect, Setaria viridis (level) for the item CCOCc1c(S(C)(=O)=O)ccc(C(=O)c2c(CC)nn(CC)c2OC(=O)c2nn(C)cc2Cl)c1Cl [Compound 104]
OUT: 10

IN: Respond only with weed control effect, Setaria viridis (level) recorded for CCc1nn(C)c(C(=O)Oc2c(C(=O)c3ccc(S(C)(=O)=O)c(Cn4cccn4)c3Cl)c(C)nn2C(C)C)c1Cl [Compound 106]
OUT: 10

IN: Let me know recorded weed control effect, Setaria viridis (level) for CCc1nn(C)c(C(=O)Oc2c(C(=O)c3ccc(S(C)(=O)=O)c(COCC(F)(F)F)c3Cl)cnn2C)c1Cl [Compound 105] , thanks.
OUT: 10

IN: Look up and state reported weed control effect, Setaria viridis (level) for CCc1nn(CC)c(OC(=O)c2cn(C)nc2C)c1C(=O)c1ccc(S(C)(=O)=O)c(COCC(F)F)c1Cl [Compound 94]
OUT: 10

IN: Give weed control effect, Setaria viridis (level) for CC=CCOCc1c(S(C)(=O)=O)ccc(C(=O)c2c(C)nn(C)c2OC(=O)c2cn(C)nc2C)c1Cl [Compound 38]
OUT: 10

IN: For the compound CCOCCOCc1c(S(C)(=O)=O)ccc(C(=O)c2c(C)nn(C)c2OC(=O)c2cn(C)nc2C)c1Cl [Compound 39] , give its measured weed control effect, Setaria viridis (level) value.
OUT: 10

IN: Quick one: give measured weed control effect, Setaria viridis (level) for CCOCc1c(S(C)(=O)=O)ccc(C(=O)c2c(C3CC3)nn(C(C)C)c2OC(=O)c2cn(C)nc2C)c1Cl [Compound 96]
OUT: 10

IN: Give reported weed control effect, Setaria viridis (level) value for C#CCOCc1c(S(C)(=O)=O)ccc(C(=O)c2c(CC)nn(CC)c2OC(=O)c2c(Cl)c(CC)nn2C)c1Cl [Compound 107]
OUT: 10

====

# System: Monocotyledonous and dicotyledonous weed
# test-details: Post-emergence test experiment, weed control effect (Table 2)
# Format: in vivo
# Set-up: key: Level 10: completely dead; Level 9: above 90% growth inhibition rate; Level 8: above 80% growth inhibition rate; Level 7: above 70% growth inhibition rate; Level 6: above 60% growth inhibition rate; Level 5: above 50% growth inhibition rate; Level 4: above 30% growth inhibition rate; Level 3: above 20% growth inhibition rate; Level 2: above 10% growth inhibition rate; Level 1: above 1-10% growth inhibition rate; Level 0: no effect
# protocol-conditions: 120 g/ha, 3 weeks after spraying, greenhouse
measure-name: weed control effect, Rorippa indica (level)

IN: Answer with the recorded weed control effect, Rorippa indica (level) for the molecule listed here: `Cc1nn(C)cc1C(=O)Oc1c(C(=O)c2ccc(S(C)(=O)=O)c(Cn3cc(Cl)cn3)c2Cl)c(C)nn1C`
OUT: 10
